System: MDR1a
testMethodNotes: Effect on rat MDR1a-mediated drug transport assessed as efflux ratio of permeability from basolateral to apical side over apical to basolateral side
Assay type: ADME
conditionSummary: not told
recordedMetric: efflux ratio
Form rule: numeric answer, no unit written next to it.

smilesCode | efflux ratio
Cc1ccnc(C2(C#N)CCN(Cc3cc4c(c5ccccc35)CN([C@H]3CCCC[C@@H]3O)C4=O)CC2)c1 | 4.5
N#CC1(c2ccccc2)CCN(Cc2cc3c(c4ccccc24)CN([C@H]2CCCC[C@@H]2O)C3=O)CC1 | 3.4
N#CC1(c2ccncn2)CCN(Cc2cc3c(c4ccccc24)CN([C@H]2CCCC[C@@H]2O)C3=O)CC1 | 20

Now consider the entry below.
Give its efflux ratio value. Item: `N#CC1(c2cnccn2)CCN(Cc2cc3c(c4ccccc24)CN([C@H]2CCCC[C@@H]2O)C3=O)CC1` 11

The reported numbers originate from ChEMBL document CHEMBL3297692.
